The molecules listed here are annotated with their ki/Ki.
biological target: Papain (Carica papaya); assay: Second-order rate constants for the inactivation of papain (vacuolar plant enzyme)
ATTRIBUTE MEASURED: ki/Ki (M⁻¹ s⁻¹)

>>> meas_value("CCOC(=O)[C@H]1[C@H](C(=O)OCC)N1C(=O)[C@H](Cc1ccccc1)NC(=O)C(C)NC(=O)OCc1ccccc1 (single isomer, unassigned)")
0.35
>>> meas_value("CCOC(=O)[C@H]1[C@H](C(=O)N[C@@H](CC(C)C)C(=O)N2CCCC2C(=O)OCc2ccccc2)N1C(=O)[C@H](Cc1ccccc1)NC(=O)OC(C)(C)C (some centres undefined)")
12.8
>>> meas_value("CCOC(=O)[C@H]1[C@H](C(=O)N[C@@H](CC(C)C)C(=O)OCc2ccccc2)N1C(=O)[C@H](Cc1ccccc1)NC(=O)OC(C)(C)C")
3.75
>>> meas_value("CCOC(=O)C1NC1C(=O)N[C@@H](CC(C)C)C(=O)NCCC(C)C (some centres undefined)")
3

====

target: Papain (Carica papaya) (UniProt P00784); assay: Second-order rate constants for the inactivation of papain (vacuolar plant enzyme)
Sequence (P00784 whole entry): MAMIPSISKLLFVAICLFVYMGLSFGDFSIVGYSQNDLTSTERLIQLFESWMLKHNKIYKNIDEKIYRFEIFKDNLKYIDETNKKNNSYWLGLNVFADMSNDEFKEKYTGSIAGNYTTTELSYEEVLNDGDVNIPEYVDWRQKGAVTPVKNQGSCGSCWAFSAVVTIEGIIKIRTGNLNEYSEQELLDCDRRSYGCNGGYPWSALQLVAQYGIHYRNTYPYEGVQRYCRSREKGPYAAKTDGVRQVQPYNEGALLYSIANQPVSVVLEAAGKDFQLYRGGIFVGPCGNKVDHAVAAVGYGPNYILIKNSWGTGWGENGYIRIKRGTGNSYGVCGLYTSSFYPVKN
ATTRIBUTE MEASURED: ki/Ki (M⁻¹ min⁻¹)

>>> meas_value("CCOC(=O)[C@@H]1[C@@H](C(=O)OCC)N1C(=O)[C@H](Cc1ccccc1)NC(=O)[C@H](C)NC(=O)OCc1ccccc1")
177
>>> meas_value("CCOC(=O)C1NC1C(=O)N[C@H](CC(C)C)C(=O)NCCC(C)C (some centres not stated)")
3300
>>> meas_value("CCOC(=O)[C@@H]1[C@@H](C(=O)OCC)N1C(=O)[C@H](C)NC(=O)OC(C)(C)C")
43
>>> meas_value("CCOC(=O)[C@@H]1[C@@H](C(=O)OCC)N1C(=O)CNC(=O)CNC(=O)OCc1ccccc1")
297
>>> meas_value("CCOC(=O)[C@@H]1[C@@H](C(=O)N[C@@H](CC(C)C)C(=O)N2CCCC2C(=O)OCc2ccccc2)N1C(=O)[C@H](Cc1ccccc1)NC(=O)OC(C)(C)C (some centres not stated)")
321
>>> meas_value("CCOC(=O)[C@@H]1[C@@H](C(=O)N[C@@H](CC(C)C)C(=O)OCc2ccccc2)N1C(=O)[C@H](Cc1ccccc1)NC(=O)OC(C)(C)C")
171
>>> meas_value("CCOC(=O)[C@H]1N[C@@H]1C(=O)N[C@@H](CC(C)C)C(=O)N1CCC[C@H]1C(=O)OCc1ccccc1")
227

====

biological target: calpain I; assay: Inhibition constant for the non time dependent inhibition of calpain I
ATTRIBUTE MEASURED: Ki (µM)

>>> meas_value("CCOC(=O)[C@@H]1[C@@H](C(=O)OCC)N1C(=O)[C@H](C)NC(=O)OCc1ccccc1")
160

====

Biological target: Pro-cathepsin H (Homo sapiens, UniProt P09668)
Sequence (P09668 whole entry): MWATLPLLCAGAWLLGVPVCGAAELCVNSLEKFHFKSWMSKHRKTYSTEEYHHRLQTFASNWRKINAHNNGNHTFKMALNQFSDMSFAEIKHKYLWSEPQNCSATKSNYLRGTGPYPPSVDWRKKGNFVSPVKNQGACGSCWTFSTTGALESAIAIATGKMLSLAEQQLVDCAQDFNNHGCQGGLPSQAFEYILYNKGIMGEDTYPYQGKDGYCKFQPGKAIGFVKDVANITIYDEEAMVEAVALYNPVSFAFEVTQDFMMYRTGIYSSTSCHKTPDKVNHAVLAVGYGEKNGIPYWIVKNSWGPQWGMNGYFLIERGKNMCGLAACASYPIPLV
Experiment: Inhibition constant for the non time dependent inhibition of cathepsin H
The compounds listed here are annotated with their Ki.
ATTRIBUTE MEASURED: Ki (µM)

>>> meas_value("CCOC(=O)[C@@H]1[C@@H](C(=O)N[C@@H](CC(C)C)C(=O)OCc2ccccc2)N1C(=O)[C@H](Cc1ccccc1)NC(=O)OC(C)(C)C")
93
>>> meas_value("CCOC(=O)[C@H]1[C@H](C(=O)N[C@@H](CC(C)C)C(=O)OCc2ccccc2)N1C(=O)[C@H](Cc1ccccc1)NC(=O)OC(C)(C)C")
137
>>> meas_value("CCOC(=O)C1NC1C(=O)N[C@@H](CC(C)C)C(=O)OCc1ccccc1 (stereo partly drawn)")
260
